# % inhibition T4 180' per record follows
- target-desc: bacteriophage T4 DNA polymerase (Enterobacteria phage T4)
- Construct: made in house
- Sequence (P04415 whole entry): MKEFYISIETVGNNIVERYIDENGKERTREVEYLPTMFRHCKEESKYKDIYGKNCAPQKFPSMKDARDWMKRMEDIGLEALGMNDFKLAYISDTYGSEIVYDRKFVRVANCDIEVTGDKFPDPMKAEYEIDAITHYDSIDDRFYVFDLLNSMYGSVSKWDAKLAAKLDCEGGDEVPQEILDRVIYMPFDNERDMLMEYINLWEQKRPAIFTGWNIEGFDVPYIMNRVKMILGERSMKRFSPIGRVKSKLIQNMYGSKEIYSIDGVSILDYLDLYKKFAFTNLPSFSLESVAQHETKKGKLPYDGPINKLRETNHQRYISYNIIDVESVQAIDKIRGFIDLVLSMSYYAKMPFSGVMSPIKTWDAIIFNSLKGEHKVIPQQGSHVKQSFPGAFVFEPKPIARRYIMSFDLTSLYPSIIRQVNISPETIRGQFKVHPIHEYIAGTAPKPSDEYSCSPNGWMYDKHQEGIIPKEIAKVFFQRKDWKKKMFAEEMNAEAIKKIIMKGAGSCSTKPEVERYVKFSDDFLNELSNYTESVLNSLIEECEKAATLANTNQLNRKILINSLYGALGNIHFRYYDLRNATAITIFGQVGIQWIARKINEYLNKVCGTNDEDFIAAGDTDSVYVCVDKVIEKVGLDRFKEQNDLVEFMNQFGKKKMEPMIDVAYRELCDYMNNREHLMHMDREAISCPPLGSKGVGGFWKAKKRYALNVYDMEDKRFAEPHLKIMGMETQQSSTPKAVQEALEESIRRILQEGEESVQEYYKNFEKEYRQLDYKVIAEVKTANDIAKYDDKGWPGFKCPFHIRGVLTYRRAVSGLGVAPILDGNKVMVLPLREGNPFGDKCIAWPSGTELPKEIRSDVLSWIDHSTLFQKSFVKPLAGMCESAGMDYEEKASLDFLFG
- test-protocol: Counter-screen against bacteriophage T4 DNA polymerase
- Assay type: biochemical
- measurement-context: DRC-2; 180'; concentration 40
- Method: Codon-optimized, exonuclease-deficient Pf-apPOL was overexpressed in E. coli BL21 (DE3) and purified as described. The protein was dialysed against two, 1-liter changes of 20 mM Tris-HCl (pH 8.0), 400 mM NaCl, and 20% glycerol. […] Each compound was tested in a dose-response format to determine IC50 values. […] T4 DNA polymerase can be produced in large quantities, and is in the same family (B-family) as the replicative human DNA polymerases (α, δ, and ε)[20].

molecule	% inhibition T4 180' / %
Cc1ccc2c(C(=O)NCCc3cccnc3)cc(NC(=O)C(C)C)cc2n1 [KU0206096]	28
CN(C)S(=O)(=O)Oc1ccc(-c2noc(-c3ccc(Oc4cc(Cl)cc(Cl)c4)o3)n2)cc1 [KU0263859]	38
COc1cccc(C(=O)N2CCc3c(nc4cc(-c5ccccc5)[nH]n4c3=O)C2)c1OC [Molecule 22]	-29
Cc1ccc(-n2nnc(C(=O)O)c2-c2ccccn2)c(F)c1 [Molecule 54, Cc1ccc(c(c1)F)n1nnc(c1c1ccccn1)C(=O)O]	20
N#CC(=NNc1cc(C(F)(F)F)cc(C(F)(F)F)c1)C(=O)c1ccco1 [KU0264276]	13
O=C(Cc1cc(=O)[nH]c(SCc2ccccc2)n1)Nc1ccc2c(c1)OCO2 [Molecule 46]	4
O=[N+]([O-])c1ccc(/C=C/c2ccc3ccccc3n2)o1 [Molecule 21, O=N(=O)c1ccc(o1)/C=C/c1ccc2c(n1)cccc2]	37
COc1ccc(C(=O)N2CCc3c(nc4cc(-c5ccccc5Cl)[nH]n4c3=O)C2)cn1 [Molecule 26]	-17
O=C(NNC(=O)c1ccc(Cl)cc1)C(=O)NNC(=O)c1ccc(Cl)cc1 [Molecule 25]	-17
CCOC(=O)C1=C2c3cc(OC)c(OC)cc3CC(C)(C)N2C(=O)C1=O [KU0193659]	37
O=C(O)CCS(=O)(=O)c1ccc(-c2ccc(S(=O)(=O)CCC(=O)O)cc2)cc1 [Molecule 32]	-22
O=C1N=C(Nc2cccc(Cl)c2Cl)S/C1=C\c1ccco1 [Molecule 3, O=C1N=C(S/C/1=C\c1ccco1)Nc1cccc(c1Cl)Cl]	30
COc1ccc(-c2cc3nc4c(c(=O)n3[nH]2)CCN(C(=O)CCc2ccccc2)C4)cc1 [Molecule 17]	-25

Taken from paper PMC9090415.
